method.description: Pharmacokinetic parameter Tmax was reported in dog after intravenous administration
Type: ADME, organism-based, Canis lupus familiaris
condition.details: in vivo
measured.attribute: Tmax
Quick note: unit goes after the number.

Task: Requested field: Tmax. Item: CC(C)[C@@H]1C(=O)N(S(C)(=O)=O)[C@@H]2CCN(C(=O)c3coc(CN4CCCC4)n3)[C@H]21.Cl
Output: 1.8 min

---

Listed here are molecules together with their documented Vd.
method.description: Pharmacokinetic parameter Varea in dog was reported in Cassette dosage
Type: ADME, organism-based, Canis lupus familiaris
condition.details: in vivo, read-out: Varea
Answer with a number only, understood to be in L/kg.

>>> df
                                   molecule  result_units  readout_value
0  CC(C)[C@@H]1C(=O)N(S(C)(=O)=O)[C@@H]2CCN(C(=O)/C=C/CNC3CC3)[C@H]21          L/kg            2.5
1  CC(C)C1C(=O)N(S(C)(=O)=O)C2CCN(C(=O)c3ccc(CNC4CC4)cc3)C12 (stereo not drawn)          L/kg            4.3

Task: Requested field: Vd. Item: CC(C)C1C(=O)N(S(C)(=O)=O)C2CCN(C(=O)c3csc(CN4CCCC4)n3)C12 (stereo not drawn)
Output: 4.8

Task: Moving on to the next molecule: CC(C)C1C(=O)N(S(C)(=O)=O)C2CCN(C(=O)/C=C/CN3CCCCC3)C12 (stereo not drawn)
Output: 3.3

Task: Moving on to the next molecule: CCCN(C)Cc1ccc(C(=O)N2CCC3C2C(C(C)C)C(=O)N3S(C)(=O)=O)cc1 (stereo not drawn)
Output: 7.6

Task: Moving on to the next molecule: CC(C)C1C(=O)N(S(C)(=O)=O)C2CCN(C(=O)c3ccc(CNC4CC4)nc3)C12 (stereo not drawn)
Output: 2.9

Task: Moving on to the next molecule: CC(C)[C@@H]1C(=O)N(S(C)(=O)=O)[C@@H]2CCN(C(=O)c3ccc(CCN4CCCCC4)cc3)[C@H]21
Output: 6.6

Task: Moving on to the next molecule: CC(C)[C@@H]1C(=O)N(S(C)(=O)=O)[C@@H]2CCN(C(=O)c3ccc(CN(C)C(C)C)c(Br)c3)[C@H]21
Output: 4.4

---

method.description: Oral bioavailability in rat
Assay type: ADME, organism-based
condition.details: in vivo
Listed here are compounds together with their documented bioavailability.
Answer with a number only, understood to be in %.

Solved entries (count: 3):
                           smiles_structure  readout_value
0  CC(C)[C@@H]1C(=O)N(S(C)(=O)=O)[C@@H]2CCN(C(=O)/C=C/CN3CCCCC3)[C@H]21.Cl             60
1  CC(C)[C@@H]1C(=O)N(S(C)(=O)=O)[C@@H]2CCN(C(=O)c3coc(CN4CCCC4)n3)[C@H]21.Cl             24
2  CC(C)[C@@H]1C(=O)N(S(C)(=O)=O)[C@@H]2CCN(C(=O)c3cnc(CNC4CC4)cn3)[C@H]21.Cl             43

# context switch: different compound, same bioavailability
Task: Requested field: bioavailability. Item: CC(C)[C@@H]1C(=O)N(S(C)(=O)=O)[C@@H]2CCN(C(=O)C3CN(CC(C)(C)C)C3)[C@H]21.Cl
Output: 45

---

Listed here are compounds together with their documented Tmax.
method.description: Pharmacokinetic parameter Tmax was reported in rat after intravenous administration
Assay type: ADME, organism-based
condition.details: in vivo
Quick note: unit goes after the number.

Task: Requested field: Tmax. Item: CC(C)[C@@H]1C(=O)N(S(C)(=O)=O)[C@@H]2CCN(C(=O)c3cnc(CNC4CC4)cn3)[C@H]21.Cl
Output: 1.8 min

Task: Moving on to the next compound: CC(C)[C@@H]1C(=O)N(S(C)(=O)=O)[C@@H]2CCN(C(=O)/C=C/CN3CCCCC3)[C@H]21.Cl
Output: 3 min

Task: Moving on to the next compound: CC(C)[C@@H]1C(=O)N(S(C)(=O)=O)[C@@H]2CCN(C(=O)c3coc(CN4CCCC4)n3)[C@H]21.Cl
Output: 1.8 min

Task: Moving on to the next compound: CC(C)[C@@H]1C(=O)N(S(C)(=O)=O)[C@@H]2CCN(C(=O)C3CN(CC(C)(C)C)C3)[C@H]21.Cl
Output: 1.8 min

---

pIC50 tested on UniProt P00766: recorded values
Friendly reminder that pIC50 comes from taking -log10 of the concentration in mol/L.

>>> df
                           smiles_structure    assay_target  readout_value
0  CC(C)[C@@H]1C(=O)N(S(C)(=O)=O)[C@@H]2CCN(C(=O)c3coc(CN4CCCC4)n3)[C@H]21.Cl  UniProt P00766           5.52

# context switch: different molecule, same pIC50
Task: Requested field: pIC50. Item: CC(C)[C@@H]1C(=O)N(S(C)(=O)=O)[C@@H]2CCN(C(=O)c3cnc(CNC4CC4)cn3)[C@H]21.Cl
Output: 6.27

---

method.description: pharmacokinetic parameter volume of distribution (Vd) was reported in rat after intravenous administration
Format: ADME, organism-based
condition.details: in vivo, read-out: Vd area
measured.attribute: Vd
Quick note: unit goes after the number.

Task: Requested field: Vd. Item: CC(C)[C@@H]1C(=O)N(S(C)(=O)=O)[C@@H]2CCN(C(=O)c3coc(CN4CCCC4)n3)[C@H]21.Cl
Output: 2.6 L/kg

Task: Moving on to the next compound: CC(C)[C@@H]1C(=O)N(S(C)(=O)=O)[C@@H]2CCN(C(=O)/C=C/CN3CCCCC3)[C@H]21.Cl
Output: 7.5 L/kg

Task: Moving on to the next compound: CC(C)[C@@H]1C(=O)N(S(C)(=O)=O)[C@@H]2CCN(C(=O)c3cnc(CNC4CC4)cn3)[C@H]21.Cl
Output: 5 L/kg

Task: Moving on to the next compound: CC(C)[C@@H]1C(=O)N(S(C)(=O)=O)[C@@H]2CCN(C(=O)C3CN(CC(C)(C)C)C3)[C@H]21.Cl
Output: 4.9 L/kg

---

method.description: half life was reported in dog after oral administration
Type: ADME, organism-based, Canis lupus familiaris
condition.details: in vivo
measured.attribute: half-life (h)
Answer with a number only, understood to be in h.

Solved entries (count: 3):
In [3]: df
Out[3]:
                           smiles_structure  result_units  readout_value
0  CC(C)[C@@H]1C(=O)N(S(C)(=O)=O)[C@@H]2CCN(C(=O)C3CN(CC(C)(C)C)C3)[C@H]21.Cl             h            2.1
1  CC(C)[C@@H]1C(=O)N(S(C)(=O)=O)[C@@H]2CCN(C(=O)c3cnc(CNC4CC4)cn3)[C@H]21.Cl             h            0.4
2  CC(C)[C@@H]1C(=O)N(S(C)(=O)=O)[C@@H]2CCN(C(=O)/C=C/CN3CCCCC3)[C@H]21.Cl             h            1.6

Task: Requested field: half-life. Item: CC(C)[C@@H]1C(=O)N(S(C)(=O)=O)[C@@H]2CCN(C(=O)c3coc(CN4CCCC4)n3)[C@H]21.Cl
Output: 1.4

---

method.description: half life was reported in rat after intravenous administration
Assay type: ADME, organism-based
condition.details: in vivo
measured.attribute: half-life (min)
Answer with a number only, understood to be in min.

Solved entries (count: 3):
                           smiles_structure  measured_attribute  readout_value
0  CC(C)[C@@H]1C(=O)N(S(C)(=O)=O)[C@@H]2CCN(C(=O)C3CN(CC(C)(C)C)C3)[C@H]21.Cl           half-life             48
1  CC(C)[C@@H]1C(=O)N(S(C)(=O)=O)[C@@H]2CCN(C(=O)c3cnc(CNC4CC4)cn3)[C@H]21.Cl           half-life             18
2  CC(C)[C@@H]1C(=O)N(S(C)(=O)=O)[C@@H]2CCN(C(=O)c3coc(CN4CCCC4)n3)[C@H]21.Cl           half-life             24

# context switch: different compound, same half-life
Task: Requested field: half-life. Item: CC(C)[C@@H]1C(=O)N(S(C)(=O)=O)[C@@H]2CCN(C(=O)/C=C/CN3CCCCC3)[C@H]21.Cl
Output: 66

---

method.description: Half life time in dog was reported in cassette dosage
Type: ADME, organism-based, Canis lupus familiaris
condition.details: in vivo
measured.attribute: half-life (min)
Answer with a number only, understood to be in min.

                                   compound  readout_value
0  CC(C)[C@@H]1C(=O)N(S(C)(=O)=O)[C@@H]2CCN(C(=O)/C=C/CNC3CC3)[C@H]21             60

# context switch: different compound, same half-life
Task: Requested field: half-life. Item: CC(C)C1C(=O)N(S(C)(=O)=O)C2CCN(C(=O)c3ccc(CNC4CC4)cc3)C12 (stereo not drawn)
Output: 30
